// data source = ChEMBL document CHEMBL2021899

system: KB; experiment: Reversal of p-glycoprotein-mediated multidrug resistance in human vincristine-resistance KB cells assessed as potentiation of vincristine-induced cytotoxicity at 4 uM after 48 hrs by SRB assay; format: cell-based
metricName: fold change (FC)

{"smilesCode": "COc1cc2c(c3oc4cccc(C)c4c(=O)c13)[C@@H](OC(=O)[C@@]13CCC(C)(C(=O)O1)C3(C)C)[C@@H](OC(=O)[C@@]13CCC(C)(C(=O)O1)C3(C)C)C(C)(C)O2", "testValue": 1390}
{"smilesCode": "CC1(C)Oc2ccc3c(=O)c4ccccc4oc3c2[C@@H](OC(=O)[C@@]23CCC(C)(C(=O)O2)C3(C)C)[C@H]1OC(=O)[C@@]12CCC(C)(C(=O)O1)C2(C)C", "testValue": 1260}
{"smilesCode": "CC1(C)Oc2cc(O)c3c(=O)c4ccccc4oc3c2[C@@H](OC(=O)[C@@]23CCC(C)(C(=O)O2)C3(C)C)[C@H]1OC(=O)[C@@]12CCC(C)(C(=O)O1)C2(C)C", "testValue": "< 24"}
{"smilesCode": "COc1cc2c(c3oc4ccc(F)cc4c(=O)c13)[C@@H](OC(=O)[C@@]13CCC(C)(C(=O)O1)C3(C)C)[C@@H](OC(=O)[C@@]13CCC(C)(C(=O)O1)C3(C)C)C(C)(C)O2", "testValue": 1150}
{"smilesCode": "COc1cccc2c(=O)c3c(OC)cc4c(c3oc12)[C@@H](OC(=O)[C@@]12CCC(C)(C(=O)O1)C2(C)C)[C@@H](OC(=O)[C@@]12CCC(C)(C(=O)O1)C2(C)C)C(C)(C)O4", "testValue": 1020}
{"smilesCode": "COc1cc2c(c3oc4cc(Br)ccc4c(=O)c13)[C@@H](OC(=O)[C@@]13CCC(C)(C(=O)O1)C3(C)C)[C@@H](OC(=O)[C@@]13CCC(C)(C(=O)O1)C3(C)C)C(C)(C)O2", "testValue": 264}

###

The entries below are paired with their reported fold change (FC).
test system: KB; test: Reversal of p-glycoprotein-mediated multidrug resistance in human vincristine-resistance KB cells assessed as potentiation of vincristine-induced cytotoxicity at 4 uM after 48 hrs by SRB assay; assay type: cell-based

{"compound": "COc1cc2c(c3oc4cc(C)ccc4c(=O)c13)[C@@H](OC(=O)[C@@]13CCC(C)(C(=O)O1)C3(C)C)[C@@H](OC(=O)[C@@]13CCC(C)(C(=O)O1)C3(C)C)C(C)(C)O2", "fold change (FC)": 352}
{"compound": "COc1cc2c(c3oc4c(C)cccc4c(=O)c13)[C@@H](OC(=O)[C@@]13CCC(C)(C(=O)O1)C3(C)C)[C@@H](OC(=O)[C@@]13CCC(C)(C(=O)O1)C3(C)C)C(C)(C)O2", "fold change (FC)": 1100}
{"compound": "COc1cc(C)c2c(=O)c3c(OC)cc4c(c3oc2c1)[C@@H](OC(=O)[C@@]12CCC(C)(C(=O)O1)C2(C)C)[C@@H](OC(=O)[C@@]12CCC(C)(C(=O)O1)C2(C)C)C(C)(C)O4", "fold change (FC)": 518}
{"compound": "Cc1cc(=O)c2c(C)cc3c(c2o1)[C@@H](OC(=O)[C@@]12CCC(C)(C(=O)O1)C2(C)C)[C@@H](OC(=O)[C@@]12CCC(C)(C(=O)O1)C2(C)C)C(C)(C)O3", "fold change (FC)": 910}
{"compound": "COc1cc2c(c3oc4c(F)cccc4c(=O)c13)[C@@H](OC(=O)[C@@]13CCC(C)(C(=O)O1)C3(C)C)[C@@H](OC(=O)[C@@]13CCC(C)(C(=O)O1)C3(C)C)C(C)(C)O2", "fold change (FC)": 880}
{"compound": "COc1ccc(CCN(C)CCCC(C#N)(c2ccc(OC)c(OC)c2)C(C)C)cc1OC (stereo unspecified)", "fold change (FC)": 60}

###

The entries below are paired with their reported fold change (FC).
test system: KB; assay: Reversal of p-glycoprotein-mediated multidrug resistance in human vincristine-resistance KB cells assessed as potentiation of vincristine-induced cytotoxicity at 4 uM after 48 hrs by SRB assay; type: cell-based

{"smilesCode": "COc1ccc2oc3c4c(cc(OC)c3c(=O)c2c1)OC(C)(C)[C@H](OC(=O)[C@@]12CCC(C)(C(=O)O1)C2(C)C)[C@@H]4OC(=O)[C@@]12CCC(C)(C(=O)O1)C2(C)C", "fold change (FC)": 343}
{"smilesCode": "CCc1cc(=O)c2ccc3c(c2o1)[C@@H](OC(=O)[C@@]12CCC(C)(C(=O)O1)C2(C)C)[C@@H](OC(=O)[C@@]12CCC(C)(C(=O)O1)C2(C)C)C(C)(C)O3", "fold change (FC)": 132}
{"smilesCode": "COc1ccc2c(=O)c3c(OC)cc4c(c3oc2c1)[C@@H](OC(=O)[C@@]12CCC(C)(C(=O)O1)C2(C)C)[C@@H](OC(=O)[C@@]12CCC(C)(C(=O)O1)C2(C)C)C(C)(C)O4", "fold change (FC)": 98}
{"smilesCode": "COc1c(Br)c2c(c3oc4ccccc4c(=O)c13)[C@@H](OC(=O)[C@@]13CCC(C)(C(=O)O1)C3(C)C)[C@@H](OC(=O)[C@@]13CCC(C)(C(=O)O1)C3(C)C)C(C)(C)O2", "fold change (FC)": 1650}
{"smilesCode": "CCc1cc(=O)c2c(C)cc3c(c2o1)[C@@H](OC(=O)[C@@]12CCC(C)(C(=O)O1)C2(C)C)[C@@H](OC(=O)[C@@]12CCC(C)(C(=O)O1)C2(C)C)C(C)(C)O3", "fold change (FC)": 677}

###

system: KB; assay: Reversal of p-glycoprotein-mediated multidrug resistance in human vincristine-resistance KB cells assessed as potentiation of vincristine-induced cytotoxicity at 4 uM after 48 hrs by SRB assay; assay type: cell-based

{"smilesCode": "Cc1cc(=O)c2ccc3c(c2o1)[C@@H](OC(=O)[C@@]12CCC(C)(C(=O)O1)C2(C)C)[C@@H](OC(=O)[C@@]12CCC(C)(C(=O)O1)C2(C)C)C(C)(C)O3", "fold change (FC)": 88}
{"smilesCode": "COc1cc2c(c3oc4ccccc4c(=O)c13)[C@@H](OC(=O)[C@@]13CCC(C)(C(=O)O1)C3(C)C)[C@@H](OC(=O)[C@@]13CCC(C)(C(=O)O1)C3(C)C)C(C)(C)O2", "fold change (FC)": 776}
{"smilesCode": "COc1cc2c(c3oc4ccc(C)cc4c(=O)c13)[C@@H](OC(=O)[C@@]13CCC(C)(C(=O)O1)C3(C)C)[C@@H](OC(=O)[C@@]13CCC(C)(C(=O)O1)C3(C)C)C(C)(C)O2", "fold change (FC)": 388}
